- test.protocol: Mouse liver microsomes stability
- Format: in vitro ADME
- experimental.conditions: male, pooled liver microsomes; mouse liver microsomes; read-out: Scaled-up CLint
measured.endpoint: CLint scaled at 2 μM (mL/min/kg)
Give the quantity in mL/min/kg, number only.

Example compounds with recorded CLint scaled at 2 μM:
{"compound": "COc1ccc2[nH]cc(CCN(C)CCOC(F)F)c2c1 [Compound I-71]", "quantitative.readout": 777}
{"compound": "COc1ccc2[nH]cc(CCN3CC[C@@H](OC(F)F)C3)c2c1 [(R) I-67]", "quantitative.readout": 251}
{"compound": "CN(C)CCc1c[nH]c2ccc(OCCOC(F)F)cc12 [Compound I-128]", "quantitative.readout": 292}
{"compound": "COc1ccc2[nH]cc(CCN3CC[C@@H](OC)C3)c2c1 [(R) I-66]", "quantitative.readout": 61.5}
{"compound": "COc1ccc2[nH]cc(CCN3CC[C@H](OC(F)F)C3)c2c1 [(S) I-67]", "quantitative.readout": 303}

Shift focus to the following entry.
Prompt line: So what's the measured CLint scaled at 2 μM for this one? CN(CCOC(F)F)CCc1c[nH]c2ccccc12 [Compound I-130]
Response line: 755
